Biological target: Bifunctional 3'-5' exonuclease/ATP-dependent helicase WRN (Homo sapiens)
Test: qHTS for Inhibitors of WRN Helicase; also: nearly all actives have a fitted effect of over 55% in size
Details: WRN helicase unwinding, fluorescent forked duplex, kinetic; series mostly up to 114 µM
Screen size: about 360,000 compounds; about 1,700 (0.47%) were called active. About 2% were inconclusive and are not listed. Calls follow the shape of the dose curve; as a rule, active = well fitted inhibition curve with a large enough effect; inconclusive = small, poorly fitted or top-dose-only effect; inactive = no such curve, though single readings can be large or run the other way. This is one part of a sample in which actives are shown more often than they occur.
Use one of these outcomes when replying: True = active, False = inactive

Prompt line: Given O=C(Nc1ccccc1)c1nnsc1S(=O)(=O)c1ccc(Cl)cc1 , state the outcome it received in this test.
Response line: True

Prompt line: Please state the recorded outcome for this molecule: Cc1cc(=O)oc2cc(OC(C)C(=O)NCCc3ccc(S(N)(=O)=O)cc3)ccc12 (stereo unspecified)
Response line: False

Prompt line: Fill in: this test's call for COc1ccc(NCc2nnc(SCc3ccccc3)n2-c2ccc(OC)cc2)cc1 is ___
Response line: False

Prompt line: Hi team, can someone confirm the assay call for C#CCOCCOCCOCCNc1nc(N2CCN(C(=O)CCCCCCCCCCNC(=O)[C@H](CCCCN)n3cc(C)nn3)CC2)nc(N2CCN(C(=O)CCCCCCCCCCNC(=O)[C@H](CO)n3cc(CCCSC)nn3)CC2)n1 ?
Response line: True

Prompt line: Which outcome was entered for the molecule c1ccc(CSc2nnc(-c3ccco3)c(-c3ccco3)n2)cc1 in this test?
Response line: True

Prompt line: Please indicate how the test categorized C/C(CC(O)(/C=N/O)c1ccccc1)=N\O (stereo unspecified) .
Response line: False

Prompt line: Record request — test call for COc1cccc(CNC(=O)[C@@H]2CCCN2C(=O)[C@@H]2CCCN2C(=O)c2ccccc2)c1
Response line: False

Prompt line: How did this test come out for Cc1ccc(Cc2cnc(N)s2)o1 ?
Response line: True

Prompt line: What classification did Cc1cc(C)c(S(=O)(=O)c2ccccc2)c(OC(=O)c2c(F)cccc2Cl)n1 end up with in this test?
Response line: False

Prompt line: Test call for this molecule, please: CCCCN(CC)CCNC(=O)c1[nH]c(C)c(C(C)=O)c1C
Response line: False

Prompt line: How did this test come out for CCC(CC)NC(=O)CSc1nnc(-c2c[nH]c3ccccc23)o1 ?
Response line: False

Prompt line: Could you check what this test reported for Cc1nnsc1S(=O)(=O)Cc1ccccc1Cl ?
Response line: False

Prompt line: What did the test return for C#CCOCCOCCOCCNc1nc(N2CCN(C(=O)CCCCCCCCCCNC(=O)[C@H]([C@@H](C)CC)n3cc(CCCCN=C(N)N)nn3)CC2)nc(N2CCN(C(=O)CCCCCCCCCCNC(=O)[C@H](CO)n3cc(CCCSC)nn3)CC2)n1 ?
Response line: True

Prompt line: Lab log entry: CC(C)(C)c1cc[n+](-c2[nH]c(=O)sc2/C=N/N=C(\[O-])c2ccccc2)cc1 — outcome as called in the assay?
Response line: False

Prompt line: Could you check what this test reported for O=C(Nc1ccc(S(=O)(=O)N2CCOCC2)cc1)C1CCN(S(=O)(=O)c2ccc(Cl)cc2)CC1 ?
Response line: False

Prompt line: Lab log entry: Cc1cc(C(=O)OC(C)C(=O)Nc2cccc(S(=O)(=O)N3CCOCC3)c2)c(C)o1 (stereo unspecified) — outcome as called in the assay?
Response line: False

Prompt line: Assay result, entry CCCCOc1ccc(Cl)cc1CSc1nncn1N — outcome?
Response line: False

Prompt line: Each molecule tested received a call. Report the one for Cc1nnc(-c2ccc(Oc3ccc(C)c(C)c3)c([N+](=O)[O-])c2)o1 .
Response line: False

Prompt line: Given c1ccc(Cc2c(-c3ccco3)nc3c4ccccc4ccn23)cc1 , state the outcome it received in this test.
Response line: False

Prompt line: Dear all, I need the recorded test outcome for O=C(CSC1=Nc2ccccc2C2=NC(c3ccccc3)C(=O)N12)NCC1CCCO1 (stereo unspecified) , thank you.
Response line: False

Prompt line: Write down the call the test reported for this molecule. Item: O=C(Nc1ccccc1C(=O)NCCCn1ccnc1)c1ccc(Cl)cc1Cl
Response line: False

Cited source for all entries: PubChem BioAssay AID651768
